Measurement Protocol: Mouse PK analysis (blood/plasma concentration after oral administration)
Type: in vivo
Condition Context: mouse; mice, oral, plasma
For each entry below, report its Tmax value.

Sure, the documented Tmax for C[C@@H](C(=O)N(C)c1ccc2cc(-c3n[nH]c4c3C[C@@H]3C(F)(F)[C@]3(C)C4)[nH]c2c1)N1CCN(C[C@H]2CCN(c3ccc4c(c3)C(=O)N(C3CCC(=O)NC3=O)C4=O)C2)CC1 (stereo partly drawn) is 6 h

Sure, the documented Tmax for CN(C(=O)CCC1CCN(c2ccc(C(=O)NC3CCC(=O)NC3=O)nc2)C1)c1ccc2cc(-c3n[nH]c4c3C[C@@H]3C(F)(F)[C@]3(C)C4)[nH]c2c1 (stereo partly drawn) is 3.5 h

Sure, the documented Tmax for C[C@@H](C(=O)N(C)c1ccc2cc(-c3n[nH]c4c3CCC(C)(C)C4)[nH]c2c1)N1CCN(CC2CCN(c3cccc4c3n(C)c(=O)n4C3CCC(=O)NC3=O)CC2)CC1 (stereo partly drawn) is 4 h
